# Test system: 454973-116-R2-J3-PDC spheroids, percent test/control viability;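 also: spheroids exposed to compounds for 7 days before readout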
# ASSAY EXPLANATION: Anticancer human tumor 454973-116-R2-J3-PDC patient-derived pancreatic carcinoma cell line growth inhibition [CLK]
# REPORTED CONDITIONS: curve of first compound; second compound 0.0316 µM; spheroids with HUVEC and MSC
pIC50: −log10 of the molar value.
REPORTED METRIC: pIC50

(a) CCCS(=O)(=O)Nc1ccc(F)c(C(=O)c2c[nH]c3ncc(-c4ccc(Cl)cc4)cc23)c1F + CNC(=O)c1ccc(Nc2nc(OC3CCCC3)c3c(-c4ccc5nc(C)oc5c4)c[nH]c3n2)c(OC)c1
(b) COc1c(OCCCN2CCOCC2)ccc2c3n(c(=NC(=O)c4cnc(N)nc4)nc12)CCN3 + CNC(=O)c1ccc(Nc2nc(OC3CCCC3)c3c(-c4ccc5nc(C)oc5c4)c[nH]c3n2)c(OC)c1
(c) NC(=O)C(=Cn1cnc(-c2cc(C(F)(F)F)cc(C(F)(F)F)c2)n1)c1cncnc1 + CNC(=O)c1ccc(Nc2nc(OC3CCCC3)c3c(-c4ccc5nc(C)oc5c4)c[nH]c3n2)c(OC)c1
IN: Going from lowest to highest recorded pIC50, rank the entries listed above. Return the labels ranked in the requested order, please.
OUT: a, c, b
(a: 5.16, c: 6.48, b: 7.14)
